# Test System: LHGFR0N7C
# Construct: FRET sensor: LhgR truncated by seven C-terminal amino acids between mTFP (N-terminus) and Venus (C-terminus)
# Assay Name: FRET titration of purified sensor with L-2-HG (10 nM to 2 mM) added to filtered human serum, sensor in 50 mM Tris-HCl pH 7.4 mixed 3:1, Venus/mTFP emission ratio.
# Type: binding
# Condition Context: SD, n = 3
pKd: −log10 of the molar value.

Compound	Test System	pKd
O=C(O)CC[C@H](O)C(=O)O [L-2-HG, L-2-hydroxyglutarate]	LHGFR0N7C	5.08

====

# Test System: LHGFR0N3C
# Construct: FRET sensor: LhgR truncated by three C-terminal amino acids between mTFP (N-terminus) and Venus (C-terminus)
# Assay Name: FRET titration of purified sensor with L-2-HG in 50 mM Tris-HCl pH 7.4, Venus/mTFP emission ratio (excitation 430 nm, emission 528/485 nm), Hill-type fit.
# Format: binding
# Condition Context: SD, n = 3; read-out: apparent dissociation constant (Kd)
Reported Endpoint: Kd (µM)

Molecule	Unit String	Recorded Measurement
O=C(O)CC[C@H](O)C(=O)O [L-2-HG, L-2-hydroxyglutarate]	µM	29.3

====

# Tested on: LHGFR0N7C
# Assay Name: Specificity of purified LHGFR0N7C, emission ratio with 240 μM compounds
# Assay type: binding, Pseudomonas putida W619
# Condition Context: 240 μM compound

Compound	Test System	Induction of emission ratio changes
O=C(O)CC(=O)C(=O)O [Oxaloacetate]	LHGFR0N7C	None
C[C@@H](O)C(=O)O [D-Lactate, D-lactate]	LHGFR0N7C	None
O=C(O)CC(O)(CC(=O)O)C(=O)O [Citrate]	LHGFR0N7C	None
O=C(O)/C=C/C(=O)O [Fumarate]	LHGFR0N7C	None
C[C@H](O)C(=O)O [L-Lactate, L-lactate]	LHGFR0N7C	None
O=C(O)CCC(=O)C(=O)O [2-KG, 2-ketoglutarate]	LHGFR0N7C	None
NCCCCC(=O)O [5-Aminovalerate, 5-aminovalerate]	LHGFR0N7C	None
NCCCC[C@H](N)C(=O)O [L-Lysine, L-lysine]	LHGFR0N7C	None
CC(=O)C(=O)O [Pyruvate, pyruvate]	LHGFR0N7C	None
O=C(O)CCC(=O)O [Succinate, succinate]	LHGFR0N7C	None
O=C(O)C[C@H](O)C(=O)O [L-Malate, L-malate]	LHGFR0N7C	None
O=C(O)/C=C(/CC(=O)O)C(=O)O [Cis-aconitate, cis-aconitate]	LHGFR0N7C	None
O=C(O)CCCC(=O)O [Glutarate, glutarate]	LHGFR0N7C	None

====

# Test System: LHGFR0N0C
# Construct: FRET sensor: full-length LhgR between mTFP (N-terminus) and Venus (C-terminus); pETDuet-1, Ni-chelating purification
# Assay Name: FRET titration of purified sensor with L-2-HG in 50 mM Tris-HCl pH 7.4, Venus/mTFP emission ratio (excitation 430 nm, emission 528/485 nm), Hill-type fit.
# Condition Context: SD, n = 3; read-out: apparent dissociation constant (Kd)
Reported Endpoint: Kd (nM)

Compound	Recorded Measurement
O=C(O)CC[C@H](O)C(=O)O [L-2-HG, L-2-hydroxyglutarate]	2740

====

# Test System: LHGFR0N7C
# Construct: FRET sensor: LhgR truncated by seven C-terminal amino acids between mTFP (N-terminus) and Venus (C-terminus)
# Assay Name: FRET titration of purified sensor with D-2-HG (10 nM to 2 mM) in 50 mM Tris-HCl pH 7.4, Venus/mTFP emission ratio (excitation 430 nm).
# Assay type: binding
# Condition Context: SD, n = 3; read-out: apparent Kd in response to D-2-HG
Reported Endpoint: Kd (µM)

Compound	Reported Endpoint	Recorded Measurement
O=C(O)CC[C@@H](O)C(=O)O [D-2-HG, D-2-hydroxyglutarate]	Kd	1850
